target or system: Human Histamine H3 Receptor (Homo sapiens)
Construct: membrane preparation
Sequence (Q9Y5N1 whole entry): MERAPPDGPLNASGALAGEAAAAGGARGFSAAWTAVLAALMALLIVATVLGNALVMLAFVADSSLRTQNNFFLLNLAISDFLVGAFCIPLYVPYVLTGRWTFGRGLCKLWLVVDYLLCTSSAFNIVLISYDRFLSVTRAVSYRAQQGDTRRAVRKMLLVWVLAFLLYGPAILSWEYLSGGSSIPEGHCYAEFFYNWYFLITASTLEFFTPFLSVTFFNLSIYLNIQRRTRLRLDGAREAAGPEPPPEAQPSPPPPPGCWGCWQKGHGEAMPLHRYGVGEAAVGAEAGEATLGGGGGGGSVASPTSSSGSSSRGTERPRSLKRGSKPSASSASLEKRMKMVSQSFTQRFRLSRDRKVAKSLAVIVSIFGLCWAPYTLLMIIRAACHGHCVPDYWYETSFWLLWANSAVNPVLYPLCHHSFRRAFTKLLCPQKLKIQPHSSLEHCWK
run description: Methyl histamine binding in human histamine H3 receptor cell line
conditions used: membranes of stably transfected HEK293T cells; radioligand 1 nM; Ki from IC50 by Cheng-Prusoff
pKi: −log10 of the molar value. Structures can show the parent of a compound that is named as a salt.
measure name: pKi

Past entries and their recorded results:
[
  {
    "compound": "COC(=O)c1ccc(COc2ccc3c(c2)CCN(C2CCN(C4CCC4)CC2)C3=O)cc1 [Example 13]",
    "pKi": "7.60 to 8.00"
  },
  {
    "compound": "CC(C)N1CC[C@@H](N2CCc3cc(-c4ccc(C(=O)N5CCCC5)cc4F)ccc3C2=O)C1 [Example 84]",
    "pKi": "≥ 8.00"
  },
  {
    "compound": "O=C(c1ccc(COc2ccc3c(c2)CCN(C2CCN(C4CCC4)CC2)C3=O)cc1)N1CCCC1 [Example 20]",
    "pKi": "≥ 8.00"
  }
]

Look up and state reported pKi for O=C(c1ccc(-c2ccc3c(c2)CCN([C@@H]2CCN(C4CCC4)C2)C3=O)c(F)c1)N1CCCC1 [Example 79]
≥ 8.00

Look up and state reported pKi for O=C(c1ccc2c(c1)CCN([C@@H]1CCN(C3CCC3)C1)C2=O)N1CCCC1 [Example 87, hydrochloride]
7.30 to 7.60

Look up and state reported pKi for CCNC(=O)c1ccc(-c2ccc3c(c2)CCN([C@@H]2CCN(C4CCC4)C2)C3=O)cc1 [Example 45]
≥ 8.00

Look up and state reported pKi for O=C(NC1CCCC1)c1ccc(-c2ccc3c(c2)CCN([C@@H]2CCN(C4CCC4)C2)C3=O)c(F)c1 [Example 80]
≥ 8.00

Look up and state reported pKi for CC(C)N1CCC[C@@H](N2CCc3cc(-c4ccc(C(=O)N5CCCC5)cc4)ccc3C2=O)C1 [Example 72]
< 7.00

Look up and state reported pKi for O=C(c1ccc(-c2ccc3c(c2)CCN([C@@H]2CCN(C4CCC4)C2)C3=O)cc1F)N1CCCC1 [Example 48]
≥ 8.00

Source: patent US20090069370A1
